System: Candida albicans (ATCC 90029)
measurement notes: Time kill study, Example 33 (0 to 5 min)
Type: cell-based
condition details: 1×MIC, 0.5 min
Where a name gives a salt, the structure may show the parent alone.
endpoint label: Viable counts, Candida albicans time kill study

1. CCCCCCCCCCCOC(=O)C(C)N(C)C (centres unmarked) [Nex-67, hydrochloride]; 5.53 Log10 CFU/mL
2. CCCCCCCCCCCCOC(=O)C(C)NC.Cl (centres unmarked); 5.18 Log10 CFU/mL
3. CCCCCCCCCCCCOC(=O)CN(C)C [Nex-52, hydrochloride]; 5.19 Log10 CFU/mL
4. CCCCCCCCCCCCOC(=O)C(C)NCCO.Cl (centres unmarked); 5.19 Log10 CFU/mL
5. CCCCCCCCCCCCOC(=O)C(Cc1ccccc1)N(C)C (centres unmarked) [Nex-54, hydrochloride]; 5.56 Log10 CFU/mL
6. CCCCCCCCOC(=O)C(C)N(C)C (centres unmarked) [Nex-70, hydrochloride]; 5.53 Log10 CFU/mL
7. CCCCCCCCCCOC(=O)C(C)N(C)C (centres unmarked) [Nex-68, hydrochloride]; 5.35 Log10 CFU/mL
8. CCCCCCCCCCCCOC(=O)C(C)NCCN(CC)CC.Cl (centres unmarked); 5.37 Log10 CFU/mL

====

The following compounds are shown together with reported Viable counts in Log10 CFU/mL values.
Tested on: Aspergillus niger
measurement notes: Extended time kill study, Example 34 (0 to 24 h)
Type: cell-based
condition details: 1 × MIC; 0 h
Counter-ions that a name gives are not always drawn.
endpoint label: Viable counts in Log10 CFU/mL (Log10 CFU/mL)

1. CCCCCCCCCCCCOC(=O)C(C)NCCO.Cl (centres unmarked); 5.28
2. CCCCCCCCCCCCOC(=O)C(C)NCCN(CC)CC.Cl (centres unmarked); 5.51
3. CCCCCCCCCCCCOC(=O)C(C)NC(C)C.Cl (centres unmarked); 5.52
4. CCCCCCCCCCCCOC(=O)C(C)NC.Cl (centres unmarked); 5.41
5. CCCCCCCCCCCCOC(=O)C(C)N(C)C (centres unmarked) [Nex-05, hydrochloride]; 5.41

====

System: Aspergillus niger
measurement notes: Extended time kill study, Example 34 (0 to 24 h)
Assay type: cell-based
condition details: 2 × MIC, 6 h
// assign Met if Viable counts in Log10 CFU/mL falls strictly below 4 Log10 CFU/mL, else Not met (ties count as Not met)

1. CCCCCCCCCCCCOC(=O)C(C)NCCO.Cl (centres unmarked); Not met
2. CCCCCCCCCCCCOC(=O)C(C)NCCN(CC)CC.Cl (centres unmarked); Not met
3. CCCCCCCCCCCCOC(=O)C(C)NC(C)C.Cl (centres unmarked); Met

====

System: Pseudomonas aeruginosa
measurement notes: Extended time kill study, Example 34 (0 to 24 h)
Format: cell-based
condition details: 4 × MIC, time 0
Counter-ions that a name gives are not always drawn.
endpoint label: Viable counts, Pseudomonas aeruginosa time kill study

1. CCCCCCCCCCCCOC(=O)C(C)N(C)C (centres unmarked) [Nex-05, hydrochloride]; 5.26 Log10 CFU/mL
2. CCCCCCCCCCCCOC(=O)C(C)NC(C)C.Cl (centres unmarked); 5.31 Log10 CFU/mL
3. CCCCCCCCCCCCOC(=O)C(C)NCCO.Cl (centres unmarked); 5.26 Log10 CFU/mL
4. CCCCCCCCCCCCOC(=O)C(C)NCCN(CC)CC.Cl (centres unmarked); 5.23 Log10 CFU/mL
5. CCCCCCCCCCCCOC(=O)C(C)NC.Cl (centres unmarked); 5.21 Log10 CFU/mL

====

System: Escherichia coli (ATCC 25922)
measurement notes: Minimum inhibitory concentration (MIC) assay, Example 33
Type: cell-based
condition details: Escherichia coli, ATCC25922, read-out: MIC E. coli, n = 2
Counter-ions that a name gives are not always drawn.
The following molecules are shown together with reported log10 of MIC values.
endpoint label: log10 of MIC (log10 of the value in µg/mL)

1. CCCCCCCCCCCCCCOC(=O)C(C)N(C)C (stereo not drawn) [Nex-66, hydrochloride]; 3.50
2. CCCCCCCCCCCCOC(=O)C(CC(C)C)N(C)C (stereo not drawn) [Nex-55, hydrochloride]; 3.80
3. CCCCCCCCCCCCOC(=O)C(C(C)C)N(C)C (stereo not drawn) [Nex-53, hydrochloride]; 3.80
4. CCCCCCCCCCCCOC(=O)C(Cc1ccccc1)N(C)C (stereo not drawn) [Nex-54, hydrochloride]; 4.10
5. CCCCCCCCCCCCOC(=O)C(C)N(C)C (stereo not drawn) [Nex-05, hydrochloride]; 3.50
6. CCCCCCCCCCCCCOC(=O)C(C)N(C)C (stereo not drawn) [Nex-69, hydrochloride]; 3.50
7. CCCCCCCCCCCCOC(=O)CN(C)C [Nex-52, hydrochloride]; 3.19
8. CCCCCCCCCCCCOC(=O)C(C)(C)N(C)C [Nex-58, hydrochloride]; 3.50
9. CCCCCCCCOC(=O)C(C)N(C)C (stereo not drawn) [Nex-70, hydrochloride]; 2.89

====

System: Escherichia coli (ATCC 25922)
measurement notes: Minimum inhibitory concentration (MIC) assay, Example 33
Format: cell-based
condition details: Escherichia coli, ATCC25922, read-out: MIC E. coli, n = 2
Counter-ions that a name gives are not always drawn.
The following molecules are shown together with reported MIC values.
endpoint label: MIC (µg/mL)

1) CCCCCCCCCCCC(C)OC(=O)C(C)N(C)C (stereo not drawn) [Nex-64, hydrochloride]; 3130
2) CCCCCCCCCCCOC(=O)C(C)N(C)C (stereo not drawn) [Nex-67, hydrochloride]; 1560
3) CCCCCCCCCCOC(=O)C(C)N(C)C (stereo not drawn) [Nex-68, hydrochloride]; 1560

====

Test system: Aspergillus niger
measurement notes: Extended time kill study, Example 34 (0 to 24 h)
Format: cell-based
condition details: 2 × MIC, 1 h
Procedure: Time kill studies. Strain suspensions were prepared as described above for the MIC test, and strain suspensions and compound solutions were mixed in the same volume. Samples were removed at specified times including 0 min, 30 sec, 1 min and 5 mins, were diluted in the test medium and streaked on agar. Colonies were counted after 24 to 48 hrs of incubation. […]
Structures can show the parent of a compound that is named as a salt.
endpoint label: Viable counts in Log10 CFU/mL (Log10 CFU/mL)

1) CCCCCCCCCCCCOC(=O)C(C)NC(C)C.Cl (centres unmarked); 4.30
2) CCCCCCCCCCCCOC(=O)C(C)NC.Cl (centres unmarked); 5.11
3) CCCCCCCCCCCCOC(=O)C(C)N(C)C (centres unmarked) [Nex-05, hydrochloride]; 4.30
4) CCCCCCCCCCCCOC(=O)C(C)NCCO.Cl (centres unmarked); 5.52
5) CCCCCCCCCCCCOC(=O)C(C)NCCN(CC)CC.Cl (centres unmarked); 5.48

====

Structures can show the parent of a compound that is named as a salt.
endpoint label: melting point

1. CCCCCCCCCCCCOC(=O)C(C)NC.Cl (centres unmarked); 78 to 83 °C
2. CCCCCCCCCCCCOC(=O)C(C)N(C)C (centres unmarked) (as salt: maleate) [Nex-20]; 65 to 70 °C
3. CCCCCCCCCCCCOC(=O)C(C)N(C)C (centres unmarked) (as salt: salt) [Nex-46]; 58 to 63 °C
4. CCCCCCCCCCCCOC(=O)C(C)NC(C)C.Cl (centres unmarked); 86 to 91 °C
5. CCCCCCCCCCCCOC(=O)C(C)N(C)C (centres unmarked) (as salt: methanesulfonate) [Nex-22]; 66 to 72 °C

====

Test system: Staphulococcus aureus (ATCC 29213)
measurement notes: Minimum inhibitory concentration (MIC) assay, Example 33
Assay type: cell-based, Staphylococcus aureus
condition details: Staphylococcus aureus, ATCC29213, n = 2; read-out: MIC S. aureus
The following compounds are shown together with reported MIC values.
endpoint label: MIC (µg/mL)

1. CCCCCCCCCCCCOC(=O)C(C)NC(C)C.Cl (stereo not shown) [Nex-60]; 1560
2. CCCCCCCCCCCCOC(=O)C(C)NCCO.Cl (stereo not shown) [Nex-61]; 50
3. NCC[C@H](O)C(=O)N[C@@H]1C[C@H](N)[C@@H](O[C@H]2O[C@H](CN)[C@@H](O)[C@H](O)[C@H]2O)[C@H](O)[C@H]1O[C@H]1O[C@H](CO)[C@@H](O)[C@H](N)[C@H]1O [Amikacin, reference compound]; 2
4. CCCCCCCCCCCCOC(=O)C(C)NC.Cl (stereo not shown) [Nex-59]; 50
5. CC(C)(O/N=C(\C(=O)N[C@@H]1C(=O)N2C(C(=O)[O-])=C(C[n+]3ccccc3)CS[C@H]12)c1csc(N)n1)C(=O)O [Ceftazidime, reference compound]; 16
6. CCCCCCCCCCCC(C)(C)OC(=O)C(C)N(C)C.Cl (stereo not shown) [Nex-65]; 3130
7. CCCCCCCCCCCCOC(=O)C(C)NCCN(CC)CC.Cl (stereo not shown) [Nex-62]; 25
